- Tested on: Staphylococcus aureus
- test_method_notes: Antimicrobial activity against multidrug resistant Staphylococcus aureus assessed as inhibition of visible microbial growth incubated for 18 hrs by broth microdilution method
- Format: functional
Starred links: 1 amine or outer side, 2 acyl side, 3 side chain; linkers in the order of their positions; H or OH if unused. Non-standard residues stand in square brackets, D forms with d. Residues, ends and D or L forms follow the SMILES beside them. Groups on a side chain read outwards from the residue. εLys = N[C@@H](CCCCN[*:1])C(=O)[*:2]; Dab = NCC[C@H](N)C(=O)O
Exercise: state measured MIC for each of the compounds provided.
Entry rule: numbers only, all in µM.

Problem: Please give the measured MIC for this compound: CC(C)C[C@H](NC(=O)CN)C(=O)N[C@@H](CCCNC(=N)N)C(=O)N[C@@H](CCN)C(=O)N[C@@H](Cc1c[nH]c2ccccc12)C(=O)N[C@@H](CC(C)C)C(=O)N[C@@H](CCCNC(=N)N)C(=O)N[C@@H](CCN)C(=O)N[C@@H](Cc1ccccc1)C(=O)N[C@@H](CCN)C(=O)N[C@@H](CCN)C(=O)N[C@@H](Cc1ccccc1)C(=O)N[C@@H](Cc1c[nH]c2ccccc12)C(=O)O (H-GLR[Dab]WLR[Dab]F[Dab][Dab]FW-OH)
Solution: 4.8

Problem: Please give the result for CC(C)C[C@H](NC(=O)CN)C(=O)N[C@@H](CCCNC(=N)N)C(=O)N[C@@H](CCCCN)C(=O)N[C@@H](Cc1c[nH]c2ccccc12)C(=O)N[C@@H](CC(C)C)C(=O)N[C@@H](CCCNC(=N)N)C(=O)N[C@@H](CCCCN)C(=O)N[C@@H](Cc1ccccc1)C(=O)NCCCC[C@H](N)C(=O)N[C@@H](CCCCN)C(=O)N[C@@H](Cc1ccccc1)C(=O)N[C@@H](Cc1c[nH]c2ccccc12)C(=O)O (H-GLRKWLRKF[εLys]KFW-OH) too.
Solution: 17.9

Problem: Please give the result for CC(C)C[C@H](NC(=O)CN)C(=O)N[C@@H](CCN)C(=O)N[C@@H](CCN)C(=O)N[C@@H](Cc1c[nH]c2ccccc12)C(=O)N[C@@H](CC(C)C)C(=O)N[C@@H](CCN)C(=O)N[C@@H](CCN)C(=O)N[C@@H](Cc1ccccc1)C(=O)N[C@@H](CCN)C(=O)N[C@@H](CCN)C(=O)N[C@@H](Cc1ccccc1)C(=O)N[C@@H](Cc1c[nH]c2ccccc12)C(=O)O (H-GL[Dab][Dab]WL[Dab][Dab]F[Dab][Dab]FW-OH) too.
Solution: 5.1

Problem: Please give the result for CC(C)C[C@H](NC(=O)CN)C(=O)N[C@@H](CCCNC(=N)N)C(=O)N[C@@H](CCCCN)C(=O)N[C@@H](Cc1c[nH]c2ccccc12)C(=O)N[C@@H](CC(C)C)C(=O)N[C@@H](CCCNC(=N)N)C(=O)NCCCC[C@H](N)C(=O)N[C@@H](Cc1ccccc1)C(=O)N[C@@H](CCCCN)C(=O)N[C@@H](CCCCN)C(=O)N[C@@H](Cc1ccccc1)C(=O)N[C@@H](Cc1c[nH]c2ccccc12)C(=O)O (H-GLRKWLR[εLys]FKKFW-OH) too.
Solution: 35.7

Problem: Please give the result for CC(C)C[C@H](NC(=O)CN)C(=O)N[C@@H](CCCNC(=N)N)C(=O)N[C@@H](CCCCN)C(=O)N[C@@H](Cc1c[nH]c2ccccc12)C(=O)N[C@@H](CC(C)C)C(=O)N[C@@H](CCCNC(=N)N)C(=O)N[C@@H](CCCCN)C(=O)N[C@@H](Cc1ccccc1)C(=O)N[C@@H](CCCCN)C(=O)N[C@@H](CCN)C(=O)N[C@@H](Cc1ccccc1)C(=O)N[C@@H](Cc1c[nH]c2ccccc12)C(=O)O (H-GLRKWLRKFK[Dab]FW-OH) too.
Solution: 18.1

Problem: Please give the result for CC(C)C[C@H](NC(=O)CN)C(=O)N[C@@H](CCCNC(=N)N)C(=O)N[C@@H](CCN)C(=O)N[C@@H](Cc1c[nH]c2ccccc12)C(=O)N[C@@H](CC(C)C)C(=O)N[C@@H](CCCNC(=N)N)C(=O)N[C@@H](CCCCN)C(=O)N[C@@H](Cc1ccccc1)C(=O)N[C@@H](CCCCN)C(=O)N[C@@H](CCCCN)C(=O)N[C@@H](Cc1ccccc1)C(=O)N[C@@H](Cc1c[nH]c2ccccc12)C(=O)O (H-GLR[Dab]WLRKFKKFW-OH) too.
Solution: 18.1

Problem: Please give the result for CC(C)C[C@H](NC(=O)CN)C(=O)N[C@@H](CCCNC(=N)N)C(=O)NCCCC[C@H](N)C(=O)N[C@@H](Cc1c[nH]c2ccccc12)C(=O)N[C@@H](CC(C)C)C(=O)N[C@@H](CCCNC(=N)N)C(=O)N[C@@H](CCCCN)C(=O)N[C@@H](Cc1ccccc1)C(=O)N[C@@H](CCCCN)C(=O)N[C@@H](CCCCN)C(=O)N[C@@H](Cc1ccccc1)C(=O)N[C@@H](Cc1c[nH]c2ccccc12)C(=O)O (H-K([Arg-Leu-Gly])WLRKFKKFW-OH) too.
Solution: 35.7

Problem: Please give the result for CC(C)C[C@H](NC(=O)CN)C(=O)N[C@@H](CCCNC(=N)N)C(=O)N[C@@H](CCCCN)C(=O)N[C@@H](Cc1c[nH]c2ccccc12)C(=O)N[C@@H](CC(C)C)C(=O)N[C@@H](CCCNC(=N)N)C(=O)N[C@@H](CCN)C(=O)N[C@@H](Cc1ccccc1)C(=O)N[C@@H](CCN)C(=O)N[C@@H](CCN)C(=O)N[C@@H](Cc1ccccc1)C(=O)N[C@@H](Cc1c[nH]c2ccccc12)C(=O)O (H-GLRKWLR[Dab]F[Dab][Dab]FW-OH) too.
Solution: 9.4

Problem: Please give the result for CN[C@H](CC(C)C)C(=O)N[C@H]1C(=O)N[C@@H](CC(N)=O)C(=O)N[C@H]2C(=O)N[C@H]3C(=O)N[C@H](C(=O)N[C@H](C(=O)O)c4cc(O)cc(O)c4-c4cc3ccc4O)[C@H](O)c3ccc(c(Cl)c3)Oc3cc2cc(c3O[C@@H]2O[C@H](CO)[C@@H](O)[C@H](O)[C@H]2O[C@H]2C[C@](C)(N)[C@H](O)[C@H](C)O2)Oc2ccc(cc2Cl)[C@H]1O too.
Solution: 0.7

Problem: Please give the result for CC(C)C[C@H](NC(=O)CN)C(=O)N[C@@H](CCCNC(=N)N)C(=O)N[C@@H](CCCCN)C(=O)N[C@@H](Cc1c[nH]c2ccccc12)C(=O)N[C@@H](CC(C)C)C(=O)N[C@@H](CCCNC(=N)N)C(=O)N[C@@H](CCCCN)C(=O)N[C@@H](Cc1ccccc1)C(=O)N[C@@H](CCN)C(=O)N[C@@H](CCN)C(=O)N[C@@H](Cc1ccccc1)C(=O)N[C@@H](Cc1c[nH]c2ccccc12)C(=O)O (H-GLRKWLRKF[Dab][Dab]FW-OH) too.
Solution: 9.2
